Target: T1, extracellular domain of human KLB expressed with C-terminal HA and hexahistidine tags (human, UniProt Q86Z14 1-996)
T1 construct: also called hKLB-HA-6His; hKLB-HA-6his
T1 sequence: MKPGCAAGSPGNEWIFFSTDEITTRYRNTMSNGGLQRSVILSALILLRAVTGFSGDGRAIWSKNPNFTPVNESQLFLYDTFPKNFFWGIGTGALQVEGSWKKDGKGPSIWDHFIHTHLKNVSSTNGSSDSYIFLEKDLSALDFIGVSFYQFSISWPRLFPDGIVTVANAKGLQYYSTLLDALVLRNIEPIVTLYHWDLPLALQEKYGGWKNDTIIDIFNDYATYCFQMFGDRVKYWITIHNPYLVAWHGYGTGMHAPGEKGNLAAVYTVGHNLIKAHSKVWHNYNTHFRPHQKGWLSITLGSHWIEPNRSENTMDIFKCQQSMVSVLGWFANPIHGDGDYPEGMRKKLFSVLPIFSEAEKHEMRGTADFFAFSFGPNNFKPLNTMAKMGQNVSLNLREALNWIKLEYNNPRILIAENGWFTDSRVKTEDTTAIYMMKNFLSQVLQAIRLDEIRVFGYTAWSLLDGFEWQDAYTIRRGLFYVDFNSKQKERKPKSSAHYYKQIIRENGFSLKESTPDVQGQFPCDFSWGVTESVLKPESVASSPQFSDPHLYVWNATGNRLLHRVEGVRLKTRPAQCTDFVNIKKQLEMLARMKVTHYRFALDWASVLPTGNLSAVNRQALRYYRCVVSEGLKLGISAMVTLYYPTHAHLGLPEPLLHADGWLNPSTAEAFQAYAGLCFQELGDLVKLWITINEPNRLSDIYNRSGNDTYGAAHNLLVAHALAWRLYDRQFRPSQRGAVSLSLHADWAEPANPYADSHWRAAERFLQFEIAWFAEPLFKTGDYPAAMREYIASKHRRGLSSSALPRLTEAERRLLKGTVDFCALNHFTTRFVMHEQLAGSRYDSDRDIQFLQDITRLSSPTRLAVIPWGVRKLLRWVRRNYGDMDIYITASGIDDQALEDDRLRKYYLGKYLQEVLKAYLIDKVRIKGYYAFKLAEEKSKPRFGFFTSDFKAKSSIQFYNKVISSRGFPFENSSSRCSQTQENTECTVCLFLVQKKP
Test: SPR, mAb captured, 25 C

BINDER: H4H8878P (antibody, V domains shown, human IgG4 Fc (H4H prefix)) VH: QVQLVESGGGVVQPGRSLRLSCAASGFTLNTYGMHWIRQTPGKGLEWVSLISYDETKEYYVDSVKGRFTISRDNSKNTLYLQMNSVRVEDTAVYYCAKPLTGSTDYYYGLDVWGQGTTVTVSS VL: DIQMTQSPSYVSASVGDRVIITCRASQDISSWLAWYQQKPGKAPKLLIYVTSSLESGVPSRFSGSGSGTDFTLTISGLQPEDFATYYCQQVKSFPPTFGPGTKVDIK
Kd [pM]: 1250
//
BINDER: H2aM8109N (antibody, V domains shown, mouse IgG2 Fc (H2aM prefix)) VH: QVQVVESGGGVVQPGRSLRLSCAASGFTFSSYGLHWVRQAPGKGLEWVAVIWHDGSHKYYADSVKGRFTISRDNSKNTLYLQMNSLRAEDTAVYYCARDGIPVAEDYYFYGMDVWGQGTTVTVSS VL: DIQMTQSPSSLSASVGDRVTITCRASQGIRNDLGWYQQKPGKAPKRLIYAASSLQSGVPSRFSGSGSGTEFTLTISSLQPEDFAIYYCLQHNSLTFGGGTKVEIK
Kd [pM]: 4440
//
BINDER: H2aM8093N (antibody, V domains shown, mouse IgG2 Fc (H2aM prefix)) VH: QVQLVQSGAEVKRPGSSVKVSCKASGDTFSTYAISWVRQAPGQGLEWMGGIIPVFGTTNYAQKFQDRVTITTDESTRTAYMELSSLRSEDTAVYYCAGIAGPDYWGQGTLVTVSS VL: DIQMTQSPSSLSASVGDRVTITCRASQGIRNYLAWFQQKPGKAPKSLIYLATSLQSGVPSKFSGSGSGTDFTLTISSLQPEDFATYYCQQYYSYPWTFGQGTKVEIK
Kd [pM]: 218
//
BINDER: H4H8837P (antibody, V domains shown, human IgG4 Fc (H4H prefix)) VH: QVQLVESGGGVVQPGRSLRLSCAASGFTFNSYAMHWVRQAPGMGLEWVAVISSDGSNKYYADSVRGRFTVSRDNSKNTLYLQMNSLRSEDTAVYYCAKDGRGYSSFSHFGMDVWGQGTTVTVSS VL: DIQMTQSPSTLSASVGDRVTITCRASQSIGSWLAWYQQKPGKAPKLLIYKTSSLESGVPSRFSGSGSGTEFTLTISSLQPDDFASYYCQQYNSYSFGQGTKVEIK
Kd [pM]: 367
//
BINDER: H4H8880P (antibody, V domains shown, human IgG4 Fc (H4H prefix)) VH: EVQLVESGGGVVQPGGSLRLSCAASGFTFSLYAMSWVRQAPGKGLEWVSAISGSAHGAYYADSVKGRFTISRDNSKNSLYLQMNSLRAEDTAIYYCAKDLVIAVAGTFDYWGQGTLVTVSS VL: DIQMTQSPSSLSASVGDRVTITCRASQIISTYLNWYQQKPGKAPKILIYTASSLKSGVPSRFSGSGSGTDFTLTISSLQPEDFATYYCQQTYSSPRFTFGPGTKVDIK
Kd [pM]: 640
//
BINDER: H4H8881P (antibody, V domains shown, human IgG4 Fc (H4H prefix)) VH: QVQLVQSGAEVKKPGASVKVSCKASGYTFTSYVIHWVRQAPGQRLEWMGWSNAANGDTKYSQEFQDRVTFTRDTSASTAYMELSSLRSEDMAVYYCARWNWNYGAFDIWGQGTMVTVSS VL: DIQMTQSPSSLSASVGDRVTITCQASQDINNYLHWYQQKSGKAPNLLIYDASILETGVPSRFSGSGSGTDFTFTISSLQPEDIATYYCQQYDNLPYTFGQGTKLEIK
Kd [pM]: 124
//
BINDER: H2aM8092N (antibody, V domains shown, mouse IgG2 Fc (H2aM prefix); also called H2M8092N) VH: QVQLQESGPGLVKPSETLSLTCTVSGGSISSYYWSWIRQPPGKGLDWIGHIYYSGTTYYNPSLKSRVSISLDTSKNQFSLKLSSVTAADTAVYYCARHLRGYSSGREFDYWGQGTLVTVSS VL: DIQMTQSPSSLSASVGGRVSLTCRASQSIFSYLNWYQQKPGKAPKLLIYAASNLQSGVPSRFSGSGSGTDFTLTISSLQPEDFATYSCQQSYNIPYTFGQGTKLEIK
Kd [pM]: 383

src = patent US20170174769A1
